Molecular target: human ACC2 (Homo sapiens (Human), UniProt O00763)
Sequence (O00763 129-2458): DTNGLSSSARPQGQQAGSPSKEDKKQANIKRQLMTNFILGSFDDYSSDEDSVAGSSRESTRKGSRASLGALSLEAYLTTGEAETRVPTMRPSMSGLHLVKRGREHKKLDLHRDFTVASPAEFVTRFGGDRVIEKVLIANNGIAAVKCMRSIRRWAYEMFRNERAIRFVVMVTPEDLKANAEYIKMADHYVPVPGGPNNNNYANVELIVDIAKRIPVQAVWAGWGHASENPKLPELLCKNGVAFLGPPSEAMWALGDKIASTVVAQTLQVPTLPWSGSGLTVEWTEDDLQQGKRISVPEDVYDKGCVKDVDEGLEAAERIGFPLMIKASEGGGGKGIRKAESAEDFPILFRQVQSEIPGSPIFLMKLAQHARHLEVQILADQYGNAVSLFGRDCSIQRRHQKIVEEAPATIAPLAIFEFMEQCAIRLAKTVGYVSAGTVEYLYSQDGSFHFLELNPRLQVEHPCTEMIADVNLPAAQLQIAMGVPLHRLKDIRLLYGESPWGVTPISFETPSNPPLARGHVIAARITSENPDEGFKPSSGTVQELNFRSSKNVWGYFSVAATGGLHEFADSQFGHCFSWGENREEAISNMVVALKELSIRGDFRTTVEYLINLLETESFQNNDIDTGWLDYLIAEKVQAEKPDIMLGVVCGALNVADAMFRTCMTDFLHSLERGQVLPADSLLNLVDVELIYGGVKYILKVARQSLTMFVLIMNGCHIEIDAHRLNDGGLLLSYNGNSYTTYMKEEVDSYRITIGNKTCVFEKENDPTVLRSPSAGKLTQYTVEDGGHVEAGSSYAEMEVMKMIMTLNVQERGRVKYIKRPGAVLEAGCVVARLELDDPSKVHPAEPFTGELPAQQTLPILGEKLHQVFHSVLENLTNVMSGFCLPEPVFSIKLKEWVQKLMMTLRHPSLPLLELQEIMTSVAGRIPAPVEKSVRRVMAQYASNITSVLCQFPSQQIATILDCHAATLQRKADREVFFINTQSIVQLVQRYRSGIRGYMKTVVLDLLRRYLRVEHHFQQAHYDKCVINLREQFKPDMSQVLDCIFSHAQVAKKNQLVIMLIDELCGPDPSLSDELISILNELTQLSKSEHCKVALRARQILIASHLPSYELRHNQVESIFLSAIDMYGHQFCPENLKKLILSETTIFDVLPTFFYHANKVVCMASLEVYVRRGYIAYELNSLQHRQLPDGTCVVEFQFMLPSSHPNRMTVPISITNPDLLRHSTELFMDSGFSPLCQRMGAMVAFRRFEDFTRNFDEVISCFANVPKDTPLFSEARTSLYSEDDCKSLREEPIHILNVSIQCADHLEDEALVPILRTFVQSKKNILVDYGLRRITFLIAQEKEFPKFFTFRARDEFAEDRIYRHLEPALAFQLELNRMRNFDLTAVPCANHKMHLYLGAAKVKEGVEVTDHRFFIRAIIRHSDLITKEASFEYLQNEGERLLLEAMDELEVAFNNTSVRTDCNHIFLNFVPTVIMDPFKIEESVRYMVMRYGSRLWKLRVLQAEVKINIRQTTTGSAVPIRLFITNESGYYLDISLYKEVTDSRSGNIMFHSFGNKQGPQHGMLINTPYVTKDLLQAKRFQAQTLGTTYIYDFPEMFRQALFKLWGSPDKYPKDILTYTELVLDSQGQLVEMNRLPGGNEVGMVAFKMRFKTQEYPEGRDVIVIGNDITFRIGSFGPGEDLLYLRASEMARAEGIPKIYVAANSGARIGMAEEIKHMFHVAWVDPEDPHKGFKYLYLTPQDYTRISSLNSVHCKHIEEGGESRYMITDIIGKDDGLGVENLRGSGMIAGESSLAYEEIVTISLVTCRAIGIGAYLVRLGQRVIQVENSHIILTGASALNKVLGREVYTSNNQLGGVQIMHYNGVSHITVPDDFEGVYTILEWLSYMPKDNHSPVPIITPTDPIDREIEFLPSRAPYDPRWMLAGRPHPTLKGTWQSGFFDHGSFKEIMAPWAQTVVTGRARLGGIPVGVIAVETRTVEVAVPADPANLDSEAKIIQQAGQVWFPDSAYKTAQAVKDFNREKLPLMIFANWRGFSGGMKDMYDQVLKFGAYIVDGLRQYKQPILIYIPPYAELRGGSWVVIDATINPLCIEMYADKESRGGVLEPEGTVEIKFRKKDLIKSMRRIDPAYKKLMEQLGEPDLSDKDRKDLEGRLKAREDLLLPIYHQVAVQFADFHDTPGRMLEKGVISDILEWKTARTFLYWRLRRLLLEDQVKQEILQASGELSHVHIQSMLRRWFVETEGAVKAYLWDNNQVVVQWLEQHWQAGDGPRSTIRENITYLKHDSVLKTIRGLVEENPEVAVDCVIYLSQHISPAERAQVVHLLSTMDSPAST
Assay: ACC2 assay (spectrophotometric 384 well assay, NADH-linked coupled lactate dehydrogenase/pyruvate kinase)
Assay type: biochemical
Conditions: hACC2 construct lacking 128 N-terminal amino acids; 25° C., 340 nm, 15 minutes
Parameter measured: IC50 (nM)

>  <Compound>
CC(=O)N[C@@H](C)c1ccc(OC2CN(c3cccc(OCC4CC4)c3)C2)cc1

>  <Readout number>
1440

$$$$
>  <Compound>
C[C@H](NC(=O)c1cn[nH]c1)c1ccc(OC2CN(c3ncc(C4CC4)cn3)C2)cc1

>  <Readout number>
160

$$$$
>  <Compound>
CCOc1ccc(N2CC(Oc3ccc([C@H](C)NC(=O)c4ccno4)cc3)C2)cc1

>  <Readout number>
1090

$$$$
>  <Compound>
CCOc1ccc(N2CC(Oc3ccc([C@H](C)NC(=O)c4ccns4)cc3)C2)cc1

>  <Readout number>
810

$$$$
>  <Compound>
CCCc1cnc(N2CC(Oc3ccc(C(C)NC(C)=O)cc3)C2)nc1 (centres unmarked)

>  <Readout number>
320

$$$$
>  <Compound>
CCOc1ccc(N2CC(Oc3ccc([C@H](C)NC(=O)c4cncs4)cc3)C2)cc1

>  <Readout number>
510

$$$$
>  <Compound>
CCCOc1cccc(N2CC(Oc3ccc([C@H](C)NC(=O)N(C)C)cc3)C2)c1

>  <Readout number>
1050

$$$$
>  <Compound>
CC(=O)N[C@@H](C)c1ccc(OC2CN(c3nccc(C(F)(F)F)n3)C2)cc1

>  <Readout number>
470

$$$$
